target: Human Polθ polymerase domain (aa1820-2590) (Homo sapiens, UniProt O75417); construct: Human Polθ polymerase domain (aa1820-2590) was expressed in E. coli; made in house; host or cells: E. coli; test: Polθ Polymerase Domain Kinact/KI Assay (PicoGreen); assay type: biochemical; details: 0.8 nM Polθ, 100 nM DNA substrate, kobs vs [I] fit for 2-step covalent inhibitor
Sequence (O75417 1820-2590): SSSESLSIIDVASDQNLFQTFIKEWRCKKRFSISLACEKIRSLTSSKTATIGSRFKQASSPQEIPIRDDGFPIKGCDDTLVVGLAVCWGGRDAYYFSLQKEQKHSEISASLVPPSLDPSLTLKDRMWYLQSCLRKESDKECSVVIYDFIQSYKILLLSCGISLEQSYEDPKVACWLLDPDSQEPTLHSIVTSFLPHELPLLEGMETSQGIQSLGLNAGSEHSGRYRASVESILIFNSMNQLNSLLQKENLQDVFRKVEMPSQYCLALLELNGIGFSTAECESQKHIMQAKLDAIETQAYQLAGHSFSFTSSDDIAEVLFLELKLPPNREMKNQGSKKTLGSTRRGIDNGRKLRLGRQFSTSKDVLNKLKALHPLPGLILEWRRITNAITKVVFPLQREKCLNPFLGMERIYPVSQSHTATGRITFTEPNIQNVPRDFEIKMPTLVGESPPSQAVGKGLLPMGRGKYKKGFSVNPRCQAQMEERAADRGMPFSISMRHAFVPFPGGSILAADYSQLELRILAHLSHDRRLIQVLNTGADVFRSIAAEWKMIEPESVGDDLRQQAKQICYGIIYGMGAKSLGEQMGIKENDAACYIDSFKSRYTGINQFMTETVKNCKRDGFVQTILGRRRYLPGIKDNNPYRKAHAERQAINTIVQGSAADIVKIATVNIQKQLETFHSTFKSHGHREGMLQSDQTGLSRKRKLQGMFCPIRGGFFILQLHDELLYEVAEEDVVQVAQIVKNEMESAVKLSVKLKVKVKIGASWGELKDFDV
TEST READOUT: Kinact/Kl (M⁻¹ s⁻¹)

{"MOLECULE": "C=CC(=O)N1C[C@@H]2CN(CCN3C[C@H]4CC(=O)N(c5cc(C(F)(F)F)cc(C)n5)[C@@H]4C(=O)N(C)c4cccc(F)c43)CCN2[C@@H](C)C1 [Example 64b]", "REPORTED RESULT": 270000}
{"MOLECULE": "C=CC(=O)N1CC2(CN(CCN3C[C@H]4CC(=O)N(c5cc(C(F)(F)F)cc(C)n5)[C@@H]4C(=O)N(C)c4cccc(Cl)c43)C[C@@H](C)N2)C1", "REPORTED RESULT": "1.26e+06"}
{"MOLECULE": "C=C(CN(C)C)C(=O)N1CC(OCCCN2C[C@H]3CC(=O)N(c4cc(C(F)(F)F)cc(C)n4)[C@@H]3C(=O)N(C)c3cccc(F)c32)C1", "REPORTED RESULT": "3.35e+06"}
{"MOLECULE": "Cc1cc(C(F)(F)F)cc(N2C(=O)C[C@@H]3CN(CCCOC4CN(C(=O)C5=CCCN(C)C5)C4)c4c(C)cccc4N(C)C(=O)[C@H]32)n1", "REPORTED RESULT": "2.06e+06"}
{"MOLECULE": "C=CC(=O)N1CCC(N2CCC(CN3C[C@H]4CC(=O)N(c5cc(C(F)(F)F)cc(C)n5)[C@@H]4C(=O)N(C)c4cccc(C)c43)CC2)C1 (mixture of isomers) [Example 95b]", "REPORTED RESULT": "2.5e+06"}
{"MOLECULE": "C=CC(=O)N1Cc2ccc(CN3C[C@H]4CC(=O)N(c5cc(C(F)(F)F)cc(C)n5)[C@@H]4C(=O)N(C)c4cccc(Cl)c43)cc2C1CC#N (single isomer, unassigned) [Example 288a]", "REPORTED RESULT": 630000}
{"MOLECULE": "C=CC(=O)N1CC2(CN(CCN3C[C@H]4CC(=O)N(c5cc(C(F)(F)F)cc(C)n5)[C@@H]4C(=O)N(C)c4cccc(C)c43)CC2C#N)C1 (single isomer, unassigned) [Example 118a]", "REPORTED RESULT": "3e+06"}
{"MOLECULE": "C=CC(=O)N1Cc2nc(CN3C[C@H]4CC(=O)N(c5cc(C(F)(F)F)cc(C)n5)[C@@H]4C(=O)N(C)c4cccc(Cl)c43)cn2CC1C (single isomer, unassigned) [Example 143a]", "REPORTED RESULT": "1e+06"}
{"MOLECULE": "C=CC(=O)N1Cc2nc(CN3C[C@H]4CC(=O)N(c5cc(C(F)(F)F)cc(C)n5)[C@@H]4C(=O)Nc4cccc(Cl)c43)cn2CC1C (single isomer, unassigned) [Example 144a]", "REPORTED RESULT": "1.06e+06"}
{"MOLECULE": "C=C(CN(C)C)C(=O)N1CC(C(=O)N(C)CCN2C[C@H]3CC(=O)N(c4cc(C(F)(F)F)cc(C)n4)[C@@H]3C(=O)N(C)c3cccc(Cl)c32)C1", "REPORTED RESULT": "4.96e+06"}
{"MOLECULE": "C=CC(=O)N1CCn2c(nc(CN3C[C@H]4CC(=O)N(c5cc(C(F)(F)F)cc(C)n5)[C@@H]4C(=O)N(C)c4cccc(C)c43)c2C)C1", "REPORTED RESULT": "5.83e+06"}
{"MOLECULE": "C=CC(=O)N1Cc2cc(CN3C[C@H]4CC(=O)N(c5cc(C(F)(F)F)cc(C)n5)[C@@H]4C(=O)N(C)c4cccc(C)c43)cnc2[C@H]1CC#N (racemic) [Example 321b]", "REPORTED RESULT": 690000}
{"MOLECULE": "C=CC(=O)N1CC(Oc2cccc(N3C[C@H]4CC(=O)N(c5cc(C(F)(F)F)cc(C)n5)[C@@H]4C(=O)N(C)c4cccc(F)c43)n2)C1", "REPORTED RESULT": 34000}
{"MOLECULE": "C=CC(=O)Nc1ccc(CN2C[C@H]3CC(=O)N(c4cc(C(F)(F)F)cc(C)n4)[C@@H]3C(=O)N(C)c3cccc(Cl)c32)cc1C#N", "REPORTED RESULT": 810000}
{"MOLECULE": "C=C(COC(C)=O)C(=O)N1CC(OCCCN2C[C@H]3CC(=O)N(c4cc(C(F)(F)F)cc(C)n4)[C@@H]3C(=O)N(C)c3cccc(Cl)c32)C1", "REPORTED RESULT": "2.06e+06"}
{"MOLECULE": "C=CC(=O)N1CC(N2CCN(CCN3C[C@H]4CC(=O)N(c5cc(C(F)(F)F)cc(C)n5)[C@@H]4C(=O)N(C)c4cccc(Cl)c43)CC2=O)C1", "REPORTED RESULT": 920000}
{"MOLECULE": "Cc1cc(C(F)(F)F)cc(N2C(=O)C[C@@H]3CN(Cc4ccc5c(c4)CN(C(=O)/C(Cl)=C/CN(C)C)C5)c4c(C)cccc4N(C)C(=O)[C@H]32)n1", "REPORTED RESULT": 980000}
{"MOLECULE": "Cc1cc(C(F)(F)F)cc(N2C(=O)C[C@@H]3CN(Cc4ccc(NC(=O)/C=C/CN(C)C)cc4)c4c(C)cccc4N(C)C(=O)[C@H]32)n1", "REPORTED RESULT": "1.82e+06"}
{"MOLECULE": "C=C(CN(C)C)C(=O)N1CC(CCCCN2C[C@H]3CC(=O)N(c4cc(C(F)(F)F)cc(C)n4)[C@@H]3C(=O)N(C)c3cccc(C)c32)C1", "REPORTED RESULT": "3.8e+06"}
{"MOLECULE": "C=CC(=O)N1Cc2cc(CN3C[C@H]4CC(=O)N(c5cc(C(F)(F)F)cc(C)n5)[C@@H]4C(=O)N(C)c4cccc(C)c43)cnc2[C@H]1COC (racemic)", "REPORTED RESULT": "5.85e+06"}
{"MOLECULE": "C=C(CN(C)C)C(=O)N1CC(CCCCN2C[C@H]3CC(=O)N(c4cc(C(F)(F)F)cc(C)n4)[C@@H]3C(=O)Nc3cccc(C)c32)C1", "REPORTED RESULT": "2.18e+06"}
